The entries below are paired with their reported collision cross section in nitrogen.
protocol-details: collision cross section in nitrogen (drift tube, single-field); higher = larger gas-phase ion size;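 further: chemical standards at 10 µM analysed by drift tube IMS-QTOF MS in about 3.95 torr nitrogen, mean of duplicate injections differing ≤1%, mass error below 10 ppm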
conditions: ion type: [M-H]; ion source: ESI; ion mode: Negative

compound | collision cross section in nitrogen
CNCc1ccc(NC(=O)c2c[nH]c3c2C(=O)CCC3)cc1 | 178.1 Å²
C=C(C)C(=O)Nc1ccc(Cl)c(Cl)c1 [Chloranocryl] | 145.8 Å²
O=S(=O)(O)c1ccc(N=Nc2c(O)ccc3cc(S(=O)(=O)O)ccc23)cc1 [FD&C Yellow 6] | 203.1 Å²

* * *

protocol-details: collision cross section in nitrogen (drift tube, single-field); higher = larger gas-phase ion size
conditions: ion type: [M-H]; ion source: ESI; ion mode: Negative
Structures can show the parent of a compound that is named as a salt.
Each entry below carries its reported collision cross section in nitrogen.
value-kind: collision cross section in nitrogen (Å²)

molecule | observed
Cc1ccc(O)cc1C | 128.7
O=C1OC2(c3ccccc31)c1cc(I)c(O)c(I)c1Oc1c2cc(I)c(O)c1I | 218.2
CCCCNC(=S)NCCCC | 148.4
CCCCCC/C=C\CCCCCCCC(=O)O [(Z)-Hexadec-9-enoic acid] | 168.4
CN(C)C(=O)Nc1ccc(Cl)c(Cl)c1 | 147.5
CCOc1ccc(NC(=O)CC(C)=O)cc1 [N-(4-Ethoxyphenyl)-3-oxobutanamide] | 155.9
O=[N+]([O-])O [Ammonium nitrate] | 104.5
CCCCCCCCCCCCCOP(=O)(O)O [Monotridecyl phosphate] | 169.9
Oc1c(I)cc(I)c2cccnc12 | 147.3
Cc1cccc(C(C)(C)C)c1O | 138.2
Nc1ccc(S(=O)(=O)O)cc1 | 134.5
COc1ccc(C(=O)c2ccccc2O)c(O)c1 [2,2′-Dihydroxy-4-methoxybenzophenone] | 153.6
N[C@@H](CCC(=O)O)C(=O)O [Sodium L-glutamate hydrate] | 125.4
CC(C)(O)c1ccc(CNC(=O)c2cccnc2Oc2ccc(F)cc2)cc1 | 196.7
O=[N+]([O-])c1ccc([As](=O)(O)O)cc1 | 138.9
Cc1ncc[nH]1 | 112.8
N[C@@H](Cc1cc(I)c(Oc2ccc(O)c(I)c2)c(I)c1)C(=O)O [3,5,3′-Triiodo-L-thyronine monosodium salt] | 198.1
COc1ccc(N=Nc2cc(C)c(N=Nc3ccc(S(=O)(=O)O)cc3)cc2OC)cc1 | 231.2
Cc1cccc(O)c1C | 126.6
CCOC(=O)Cc1ccccc1 | 144.3
O=S(=O)(O)c1ccc(N=Nc2c(O)ccc3ccccc23)cc1 | 182.7
O=[N+]([O-])c1ccc2[nH]c(S)nc2c1 | 133.6
Cc1nn(-c2cc(NS(C)(=O)=O)c(Cl)cc2Cl)c(=O)n1C(F)F | 182.4
O=C1c2cccc(O)c2C(=O)c2c(O)cc(CO)cc21 | 157.1
O=S1(=O)OC(c2ccc(O)cc2)(c2ccc(O)cc2)c2ccccc21 [Phenol Red sodium salt] | 181.8
CC1=NN(c2cccc(S(=O)(=O)O)c2)C(=O)C1 | 156.5
CCCCCCCOC(C)=O [Heptyl acetate] | 146.8
CN(CCOc1ccc(CC2SC(=O)NC2=O)cc1)c1ccccn1 (stereo not drawn) [Rosiglitazone maleate] | 176.3
Cc1cc(F)ccc1-c1cc(N2CC[C@@H](O)[C@H]2CO)ncc1N(C)C(=O)C(C)(C)c1cc(C(F)(F)F)cc(C(F)(F)F)c1 | 232.7
O=C1OC(c2ccc(O)cc2)(c2ccc(O)cc2)c2ccccc21 | 176.2
Oc1ccc(Oc2ccccc2)cc1 | 145.7
NS(=O)(=O)c1cc(C(=O)O)c(NCc2ccco2)cc1Cl [Furosemide] | 173
CCOc1cc(Oc2ccc(C(F)(F)F)cc2Cl)ccc1[N+](=O)[O-] | 172.1
